- Target Or Test System: F508del (Homo sapiens, UniProt P13569, DEL508-508)
- Construct: expressed in transfected cells
- Sequence (P13569 with tags, fused parts or gaps DEL508-508): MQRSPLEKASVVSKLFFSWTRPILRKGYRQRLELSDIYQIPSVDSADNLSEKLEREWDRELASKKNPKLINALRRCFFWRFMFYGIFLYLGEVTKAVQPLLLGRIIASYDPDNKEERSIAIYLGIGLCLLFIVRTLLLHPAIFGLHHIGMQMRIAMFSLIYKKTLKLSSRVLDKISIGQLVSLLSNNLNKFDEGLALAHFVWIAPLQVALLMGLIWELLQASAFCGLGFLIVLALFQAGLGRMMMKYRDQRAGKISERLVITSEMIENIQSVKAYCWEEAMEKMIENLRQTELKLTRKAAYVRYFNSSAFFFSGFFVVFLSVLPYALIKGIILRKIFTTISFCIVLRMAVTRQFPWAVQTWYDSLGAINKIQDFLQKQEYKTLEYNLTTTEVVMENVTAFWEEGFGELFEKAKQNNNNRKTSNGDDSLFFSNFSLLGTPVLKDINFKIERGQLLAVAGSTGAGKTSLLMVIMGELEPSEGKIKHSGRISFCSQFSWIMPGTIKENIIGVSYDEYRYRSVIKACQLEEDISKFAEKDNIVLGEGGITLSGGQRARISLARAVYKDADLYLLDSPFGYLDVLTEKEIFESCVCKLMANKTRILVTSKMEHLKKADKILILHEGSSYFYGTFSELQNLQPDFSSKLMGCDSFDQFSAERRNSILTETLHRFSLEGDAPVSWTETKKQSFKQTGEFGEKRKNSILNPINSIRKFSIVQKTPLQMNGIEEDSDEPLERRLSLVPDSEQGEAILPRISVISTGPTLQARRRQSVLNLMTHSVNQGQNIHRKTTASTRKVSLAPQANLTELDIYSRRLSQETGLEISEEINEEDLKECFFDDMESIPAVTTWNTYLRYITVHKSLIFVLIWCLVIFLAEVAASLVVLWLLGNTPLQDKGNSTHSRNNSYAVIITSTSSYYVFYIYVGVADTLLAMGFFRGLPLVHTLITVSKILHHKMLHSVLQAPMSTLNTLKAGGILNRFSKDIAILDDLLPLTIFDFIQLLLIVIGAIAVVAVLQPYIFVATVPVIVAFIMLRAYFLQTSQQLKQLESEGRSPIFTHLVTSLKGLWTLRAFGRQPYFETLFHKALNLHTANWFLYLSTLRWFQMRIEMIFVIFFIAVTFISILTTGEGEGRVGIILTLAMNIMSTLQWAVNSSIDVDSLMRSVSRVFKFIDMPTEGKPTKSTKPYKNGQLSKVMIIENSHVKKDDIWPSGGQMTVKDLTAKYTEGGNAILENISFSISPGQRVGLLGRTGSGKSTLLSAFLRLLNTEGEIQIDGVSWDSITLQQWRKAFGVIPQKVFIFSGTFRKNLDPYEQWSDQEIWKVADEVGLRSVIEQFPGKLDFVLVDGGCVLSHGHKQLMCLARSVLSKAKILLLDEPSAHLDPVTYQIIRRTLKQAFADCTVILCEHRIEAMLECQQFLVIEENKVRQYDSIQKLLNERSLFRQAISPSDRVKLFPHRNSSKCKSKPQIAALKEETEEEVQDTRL
- Assay Method Text: Protocol 2: FRET membrane potential optical assay (VIPR), identification of correction compounds
- Format: cell-based
- Measurement Setup: F508del CFTR modulator activity; compounds of Table 1; read-out: EC30
Quantity Measured: EC30

>>> result("CC(C)(C)c1ccc(C(=O)NS(=O)(=O)c2cccc(N)n2)c(N2CCC(C3CC3)C2(C)C)n1 (single isomer, unassigned) [Compound 2022]")
"< 3 µM"
>>> result("Cc1cccc(C)c1Oc1nc(-c2cc(F)cc(OCC(C)C)c2)ccc1C(=O)NS(=O)(=O)c1ccc(O)c(N)n1 [Compound 2331]")
"< 3 µM"
>>> result("CC1CN(c2ncccc2C(=O)NS(=O)(=O)c2cccc(OCCC3CCOCC3)n2)C(C)(C)C1 (centres unmarked) [Compound 2329]")
"< 3 µM"
>>> result("Cc1ccc(-c2ccc(C(=O)NS(=O)(=O)c3cccnc3N)c(N3C[C@@H](C)CC3(C)C)n2)cc1F [Compound 2345]")
"< 3 µM"
>>> result("CC1CN(c2ncccc2C(=O)NS(=O)(=O)c2cccc(OC3CCC[C@@H]3C)n2)C(C)(C)C1 (stereo in doubt) [Compound 2109]")
"< 3 µM"
>>> result("Cc1cccc(COc2cccc(S(=O)(=O)NC(=O)c3cccnc3N3CC(C)CC3(C)C)n2)n1 (centres unmarked) [Compound 2294]")
"3 to 10 µM"
>>> result("C[C@@H]1CN(c2nc(-c3ccc(F)cc3F)ccc2C(=O)NS(=O)(=O)c2ccc[nH]c2=O)C(C)(C)C1 [Compound 2159]")
"< 3 µM"
>>> result("CC1CN(c2ncccc2C(=O)NS(=O)(=O)c2cccc(Nc3cccc4ncccc34)n2)C(C)(C)C1 (centres unmarked) [Compound 2074]")
"3 to 10 µM"
>>> result("CC1CN(c2ncccc2C(=O)NS(=O)(=O)c2cccc(Oc3cccc(C(C)C)c3)n2)C(C)(C)C1 (centres unmarked) [Compound 2108]")
"< 3 µM"
>>> result("Cc1cc(-c2ccc(C(=O)NS(=O)(=O)c3ccc[nH]c3=O)c(N3C[C@@H](C)CC3(C)C)n2)ccc1F [Compound 2456]")
"< 3 µM"
>>> result("CCOC(=O)C1CCN(c2cccc(S(=O)(=O)NC(=O)c3cccnc3N3CC(C)CC3(C)C)n2)CC1 (centres unmarked) [Compound 2488]")
"< 3 µM"
>>> result("CC1CN(c2ncccc2C(=O)NS(=O)(=O)c2cccc(OC3CC=CC3)n2)C(C)(C)C1 (centres unmarked) [Compound 2317]")
"< 3 µM"
>>> result("C[C@@H]1CN(c2nc(-c3ccccc3O)ccc2C(=O)NS(=O)(=O)c2ccc[nH]c2=O)C(C)(C)C1 [Compound 2480]")
"3 to 10 µM"
>>> result("C[C@@H]1CN(c2nc(-c3ccc(OC(F)(F)F)cc3)ccc2C(=O)NS(=O)(=O)c2cccnc2N)C(C)(C)C1 [Compound 2223]")
"< 3 µM"

====

- Target Or Test System: F508del (Homo sapiens, UniProt P13569, DEL508-508)
- Construct: expressed in transfected cells
- Assay Method Text: Protocol 2: FRET membrane potential optical assay (VIPR), identification of correction compounds
- Assay type: cell-based
- Measurement Setup: F508del CFTR modulator activity; compounds of Table 1; read-out: EC30
Quantity Measured: EC30

>>> result("CC(C)c1ccc(-c2ccc(C(=O)NS(=O)(=O)c3ccc[nH]c3=O)c(N3C[C@@H](C)CC3(C)C)n2)cc1")
"< 3000 nM"
>>> result("CC1CCN(c2cccc(S(=O)(=O)NC(=O)c3cccnc3N3CC(C)CC3(C)C)n2)CC1 (centres unmarked)")
"< 3000 nM"
>>> result("CC(C)COc1ccccc1-c1ccc(C(=O)NS(=O)(=O)c2cccnc2N)c(N2C[C@@H](C)CC2(C)C)n1")
"< 3000 nM"
>>> result("C[C@@H]1CN(c2nc(-c3ccccc3F)ccc2C(=O)NS(=O)(=O)N2CC[C@H](N)C2)C(C)(C)C1")
"3000 to 10000 nM"
>>> result("CC1CN(c2ncc(-c3ccccc3Cl)cc2C(=O)NS(=O)(=O)c2cccc(N)n2)C(C)(C)C1 (centres unmarked)")
"< 3000 nM"
